test system: HOP-62 NSCLC; assay: NCI tumour cell line growth inhibition, 48 h
measured-parameter: GI50

- c1ccc2c(-c3cnn4cc(-c5ccc(N6CCNCC6)cc5)cnc34)ccnc2c1: 634 nM

Asked: Could you tell me which GI50 is on file for `Clc1ccc(-c2nc(C(Cl)Cl)nc3cc(-c4ccccc4)nn23)cc1` ?
Given back: 1220 nM

Asked: Could you tell me which GI50 is on file for `C[C@@H]1CC[C@@H]2[C@@H]1[C@H](OC(=O)c1ccc3ccccc3c1)[C@]1(C3CCCCC3)C[C@@H](OC(=O)CO)[C@@]2(C)O1` ?
Given back: 12800 nM

Asked: Could you tell me which GI50 is on file for `O=C(NCCNC(=O)c1ccc(F)cc1)Nc1ccc(-n2cc(-c3ccncc3)c(-c3ccc(Cl)c(O)c3)n2)cc1` ?
Given back: 697 nM
